Tested on: tet operator sequence
protocol: β-galactosidase activity of a tetracycline-regulated promoter in transformed E. coli with revTetR, in the presence and absence of anhydrotetracycline (atc)
Type: cell-based, Escherichia coli
condition_set: RevTetR isolate cultured in the absence of anhydrotetracycline (ATC)
quantity_name: β-Galactosidase Activity, Cultured Without ATC

1. TetRrevAF6/1: revTetR(BD) A13A E19V V20A D95I G96G (protein, Modified tetracycline repressor, revTetR(BD) A13A E19V V20A D95I G96G) MSRLDKSKVINSALELLNVAGIEGLTTRKLAQKLGVEQPTLYWHVKNKRALLDALAVEILARHHDYSLPAAGESWQSFLRNNAMSFRRALLRYRIGAKVHLGTRPDEKQYDTVETQLRFMTENGFSLRDGLYAISAVSHFTLGAVLEQQEHTAALTDRPAAPDENLPPLLREALQIMDSDDGEQAFLHGLESLIRGFEVQLTALLQIV
72.8186
